The measurements presented in this section are drawn from BigSolDB 2.1.

# COND: in acetonitrile, 288.15 K
MEASUREMENT_KIND: solubility (mole fraction)

Task: Item under review: O=C(O)CC[C@H](NC(=O)OCC1c2ccccc2-c2ccccc21)C(=O)O . Reported solubility (mole fraction)?
Output: 0.000708

====

# COND: in n-propyl acetate, 323.15 K
MEASUREMENT_KIND: solubility (mole fraction)
// return just the number, without any unit appended

Task: Tell me the measured solubility (mole fraction) of O=C(O)CC[C@H](NC(=O)OCC1c2ccccc2-c2ccccc21)C(=O)O , please.
Output: 0.00355

====

# COND: in n-butyl acetate, 323.15 K
MEASUREMENT_KIND: solubility (mole fraction)
# respond with the number and nothing more

Task: For the molecule O=C(O)CC[C@H](NC(=O)OCC1c2ccccc2-c2ccccc21)C(=O)O , what solubility (mole fraction) is on record?
Output: 0.00381

====

# COND: in acetonitrile, 298.15 K
MEASUREMENT_KIND: solubility (mole fraction)
Kindly provide the number alone.

Task: What does the record list as solubility (mole fraction) for O=C(O)CC[C@H](NC(=O)OCC1c2ccccc2-c2ccccc21)C(=O)O ?
Output: 0.000997

====

# COND: in dimethyl carbonate, 313.15 K
MEASUREMENT_KIND: solubility (mole fraction)
Answer with the value's number alone.

Task: Can you share its solubility (mole fraction)? I mean this molecule: O=C(O)CC[C@H](NC(=O)OCC1c2ccccc2-c2ccccc21)C(=O)O
Output: 0.00123

====

# COND: in methanol, 283.15 K
MEASUREMENT_KIND: solubility (mole fraction)
Answer with a number only.

Task: I have this compound here, O=C(O)CC[C@H](NC(=O)OCC1c2ccccc2-c2ccccc21)C(=O)O , and I need its recorded solubility (mole fraction).
Output: 0.0246

====

# COND: in 2-butanone, 288.15 K
MEASUREMENT_KIND: solubility (mole fraction)
The response must contain the number and no unit.

Task: Would you kindly share the measured solubility (mole fraction) for O=C(O)CC[C@H](NC(=O)OCC1c2ccccc2-c2ccccc21)C(=O)O ?
Output: 0.0112

====

# COND: in acetone, 318.15 K
MEASUREMENT_KIND: solubility (mole fraction)

Task: So what does the record say about solubility (mole fraction) for O=C(O)CC[C@H](NC(=O)OCC1c2ccccc2-c2ccccc21)C(=O)O ?
Output: 0.0437

====

# COND: in n-butyl acetate, 283.15 K
MEASUREMENT_KIND: solubility (mole fraction)
Just the number, please, no unit attached.

Task: Sample O=C(O)CC[C@H](NC(=O)OCC1c2ccccc2-c2ccccc21)C(=O)O — what was its solubility (mole fraction)?
Output: 0.00177

====

# COND: in dimethyl carbonate, 323.15 K
MEASUREMENT_KIND: solubility (mole fraction)
Note: the reply should be a number with no unit written.

Task: // solubility (mole fraction) lookup, key: O=C(O)CC[C@H](NC(=O)OCC1c2ccccc2-c2ccccc21)C(=O)O
Output: 0.00186

====

# COND: in n-pentanol, 318.15 K
MEASUREMENT_KIND: solubility (mole fraction)
Hey, just send me the number, nothing else.

Task: # query: solubility (mole fraction) of entry O=C(O)CC[C@H](NC(=O)OCC1c2ccccc2-c2ccccc21)C(=O)O
Output: 0.0187

====

# COND: in acetone, 298.15 K
MEASUREMENT_KIND: solubility (mole fraction)

Task: Form field: reported solubility (mole fraction) of O=C(O)CC[C@H](NC(=O)OCC1c2ccccc2-c2ccccc21)C(=O)O
Output: 0.0295
